What TGI was measured for each of the following?
Test system: COLO 205 colon
Assay: NCI tumour cell line growth inhibition, 48 h

Q: Entry under review: O=C(CCN1CCCCC1)C(=Cc1ccccc1)C(=O)CCN1CCCCC1 . Reported TGI?
Ans: > 76.4 µM

Q: Entry under review: CC(C)(C)OC(=O)N[C@H]1CCN(C2CCCCC2)C1=O . Reported TGI?
Ans: > 100 µM

Q: Entry under review: CCOC(=O)c1csc(NC(=O)CN2CCOCC2)n1 . Reported TGI?
Ans: > 100 µM

* * *

Tested on: SF-539 CNS
Assay: NCI tumour cell line growth inhibition, 48 h
valueKind: TGI (µM)
Use µM as the unit, but write only the number.

Q: Entry under review: C=C1C(=O)O[C@@H]2C(=O)[C@@H](C)CCC/C(C)=C/CC[C@@]3(C)O[C@@H]3C[C@@H]12 . Reported TGI?
Ans: 60.6

Q: Entry under review: COc1cc2c(c(OC)c1OC)-c1ccc(NNC(N)=S)c(=O)cc1[C@@H](NC(C)=O)CC2 . Reported TGI?
Ans: 4.31

Q: Entry under review: COc1cc(C2c3cc4c(cc3OC(N3CCOCC3)C2C)OCO4)ccc1O (configuration not stated) . Reported TGI?
Ans: 35.6

Q: Entry under review: Cc1c(C(=O)CC(=O)C(=O)Nc2ccccc2C(F)(F)F)[n+](=O)c2ccccc2n1[O-] . Reported TGI?
Ans: 46.2

Q: Entry under review: Cc1ccnc2c1ccc1c(C)ccnc12 . Reported TGI?
Ans: 5.06

Q: Entry under review: C=CC(=O)Nc1cc(Nc2ncc(C(=O)OC(C)C)c(-c3cn(C)c4ccccc34)n2)c(OC)cc1N(C)CCN(C)C . Reported TGI?
Ans: 9.45

Q: Entry under review: Nc1c2c(nc3ccccc13)-c1ccccc1CC2 . Reported TGI?
Ans: 15.1

Q: Entry under review: COc1cc2c(cc1OCCCCN1CCN(CC(=O)Nc3ccc(Cl)cc3C(=O)c3ccccc3Cl)CC1)N=CC1CCCN1C2=O (configuration not stated) . Reported TGI?
Ans: 0.501

Q: Entry under review: NS(=O)(=O)OC[C@@H]1C[C@@H](n2ccc3c(NC4CCc5ccccc54)ncnc32)C[C@@H]1O (some centres not stated) . Reported TGI?
Ans: 20.3

Q: Entry under review: O=C1/C(=C\c2ccccc2)C(NC2CCCCC2)c2ccccc21 (configuration not stated) . Reported TGI?
Ans: 4.39

* * *

Tested on: UACC-62 melanoma
Test: NCI tumour cell line growth inhibition, 48 h
valueKind: TGI

Q: Entry under review: S=C1Nc2ccccc2SC1c1ccccc1 (stereo not given) . Reported TGI?
Ans: > 100 µM

Q: Entry under review: C=C1C(=O)O[C@@H]2C(=O)[C@@H](C)CCC/C(C)=C/CC[C@@]3(C)O[C@@H]3C[C@@H]12 . Reported TGI?
Ans: > 100 µM

Q: Entry under review: CN1CCN(C2=NCCO2)CC1 . Reported TGI?
Ans: > 100 µM

Q: Entry under review: Cc1c(O)c(O)cc[n+]1C1OC(CO)C(O)C1O (stereo not given) . Reported TGI?
Ans: > 100 µM

Q: Entry under review: Cc1nc2sccn2c1-c1csc(Nc2ccccc2Cl)n1 . Reported TGI?
Ans: 23.3 µM

* * *

What TGI was measured for each of the following?
System: HCC-2998 colon
Experiment: NCI tumour cell line growth inhibition, 48 h

Q: Identify the measured TGI of Cc1cc(N(CCC#N)CCC#N)ccc1N=Nc1ccc(S(N)(=O)=O)cc1 for HCC-2998 colon.
Ans: > 100 µM

Q: Identify the measured TGI of CC(C)=CCc1c2c(c3occ(-c4ccc(O)cc4)c(=O)c3c1O)CC(C(C)(C)O)O2 (stereo not given) for HCC-2998 colon.
Ans: 23.2 µM

Q: Identify the measured TGI of O=C1NC(=NCCc2cccc(F)c2)S/C1=C\c1ccc2ncccc2c1 for HCC-2998 colon.
Ans: > 25 µM

Q: Identify the measured TGI of CN(C)c1ccc(/C=C\C2=[N+](C)c3ccccc3C2(C)C)cc1 for HCC-2998 colon.
Ans: 12.9 µM

Q: Identify the measured TGI of COc1cc2c(c3oc4c(O)cccc4c(=O)c13)CC(C(C)(O)CO)O2 (stereo not given) for HCC-2998 colon.
Ans: > 100 µM

* * *

What TGI was measured for each of the following?
System: MCF7 breast
Assay: NCI tumour cell line growth inhibition, 48 h

Q: Entry under review: CC(=O)NC(Cc1ccc(O)cc1)C(=O)O (stereo not given) . Reported TGI?
Ans: > 100 µM

Q: Entry under review: CC1CCc2nc[nH]c(=O)c21 (stereo not given) . Reported TGI?
Ans: > 100 µM

Q: Entry under review: CC(=O)OC1CC(OC2C(O)CC(OC3C(O)CC(OC4CCC5(C)C(CCC6C5CC(O)C5(C)C(C7=CC(=O)OC7)CCC65O)C4)OC3C)OC2C)OC(C)C1OC1OC(CO)C(O)C(O)C1O (stereo not given) . Reported TGI?
Ans: 0.431 µM

Q: Entry under review: COc1ccc(CC2c3cc4c(cc3CCN2C)OCO4)c(C=O)c1OC (stereo not given) . Reported TGI?
Ans: > 100 µM

Q: Entry under review: O=[N+]([O-])c1ccc2c(c1)/C(=N/N=C1c3ccccc3Cc3ccccc31)c1cc([N+](=O)[O-])cc([N+](=O)[O-])c1-2 . Reported TGI?
Ans: 3.64 µM

Q: Entry under review: COc1ccc(COCCOCc2nc(C#N)c(N)o2)cc1 . Reported TGI?
Ans: > 100 µM

Q: Entry under review: CC(C)(C)OC(=O)N[C@H]1CCN(C2CCCCC2)C1=O . Reported TGI?
Ans: > 100 µM

Q: Entry under review: Cc1ccc2c(C)c3c(ccc4ccccc43)c[n+]2c1 . Reported TGI?
Ans: 25.9 µM

Q: Entry under review: COc1cccc(C(=O)O[C@H]2[C@@H]3[C@]4(OC(C)=O)CO[C@@H]4C[C@H](O)[C@@]3(C)C(=O)[C@H](OC(C)=O)C3=C(C)[C@@H](OC(=O)[C@H](O)[C@@H](NC(=O)OC(C)(C)C)c4ccco4)C[C@]2(O)C3(C)C)c1 . Reported TGI?
Ans: > 37.5 µM

Q: Entry under review: COC1/C=C/OC2(C)Oc3c(C)c(O)c4c(O)c(c(/C=N/Nc5ccc([N+](=O)[O-])cc5[N+](=O)[O-])c(O)c4c3C2=O)NC(=O)C(C)=C/C=C/C(C)C(O)C(C)C(O)C(C)C(OC(C)=O)C1C (stereo not given) . Reported TGI?
Ans: > 50 µM

Q: Entry under review: NC(N)=N/N=C/c1c(-c2ccc(N)cc2)nc2sccn12 . Reported TGI?
Ans: > 100 µM

Q: Entry under review: CN(C)c1ccc(/C=C\C2=[N+](C)c3ccccc3C2(C)C)cc1 . Reported TGI?
Ans: 30.7 µM

Q: Entry under review: OCc1cc2ccccc2c2c3c(ccc12)OCO3 . Reported TGI?
Ans: 125 µM

Q: Entry under review: O=C(CCNC12CC3CC(CC(C3)C1)C2)c1ccccc1 . Reported TGI?
Ans: 34.9 µM

Q: Entry under review: CN1C(=O)C2CCC(=O)N2c2cccnc21 (stereo not given) . Reported TGI?
Ans: > 100 µM

* * *

Test system: LOX IMVI melanoma
Experiment: NCI tumour cell line growth inhibition, 48 h
Where a SMILES comes first, the peptide text is derived from it. [ ]: non-standard residue; d: D form. The star is where a group is joined. NMeAc5c = CNC1(C(=O)O)CCCC1; Boc = CC(C)(C)OC(=O)*; OBn = c1ccc(CO*)cc1
valueKind: TGI

Q: Identify the measured TGI of CCN(CC)CCSc1c2ccccc2nc2cc(NCC(=O)Nc3ccccc3-c3ccccc3NC(=O)CNc3ccc4c(SCCN(CC)CC)c5ccccc5nc4c3)ccc12 for LOX IMVI melanoma.
Ans: > 100 µM

Q: Identify the measured TGI of Cc1cc(-c2nc(C(=O)Nc3cc4oc(N5CCOCC5)nc4nc3N3CC[C@@H](O)C3)co2)ccn1 for LOX IMVI melanoma.
Ans: > 100 µM

Q: Identify the measured TGI of CC(=O)OC1CC(OC2C(O)CC(OC3C(O)CC(OC4CCC5(C)C(CCC6C5CC(O)C5(C)C(C7=CC(=O)OC7)CCC65O)C4)OC3C)OC2C)OC(C)C1OC1OC(CO)C(O)C(O)C1O (centres undefined) for LOX IMVI melanoma.
Ans: 0.161 µM

Q: Identify the measured TGI of CN1CCN(C2=NCCO2)CC1 for LOX IMVI melanoma.
Ans: > 100 µM

Q: Identify the measured TGI of C=CC1(C)CCC2C(=CCC3C2(C)CC(O)C(O)C3(C)COC2OC(C(=O)O)C(O)C(O)C2O)C1 (centres undefined) (tested in a mixture with another compound) for LOX IMVI melanoma.
Ans: > 100 µM

Q: Identify the measured TGI of O=C(Nc1nc2ccc([N+](=O)[O-])cc2s1)C(=O)C(C1OC(=O)c2ccccc21)[N+](=O)[O-] (centres undefined) for LOX IMVI melanoma.
Ans: > 100 µM

Q: Identify the measured TGI of O=C(Nc1ccc(F)cc1)Nc1ccc(Cl)c([N+](=O)[O-])c1 for LOX IMVI melanoma.
Ans: 12.2 µM

Q: Identify the measured TGI of COC(=O)/C=C1\S/C(=N\NC(=O)c2cc3ccc2/C=C\c2ccc(cc2)/C=C\3)N(c2ccccc2)C1=O for LOX IMVI melanoma.
Ans: 3.37 µM

Q: Identify the measured TGI of COC(=O)/C(C#N)=C1\NC(=O)c2ccccc21 for LOX IMVI melanoma.
Ans: > 100 µM

Q: Identify the measured TGI of CN(C(=O)C(Cc1ccccc1)NC(=O)OC(C)(C)C)C1(C(=O)NC(Cc2ccccc2)C(=O)OCc2ccccc2)CCCC1 (stereo not drawn) (Boc-Phe-[NMeAc5c]-Phe-OBn; configuration not given here) for LOX IMVI melanoma.
Ans: > 100 µM

Q: Identify the measured TGI of CCCN(C(=O)c1ccccc1)C(C#N)c1ccc(C(C#N)N(CCC)C(=O)c2ccccc2)cc1 (centres undefined) for LOX IMVI melanoma.
Ans: > 100 µM

Q: Identify the measured TGI of C[C@@H]1CC[C@]2(C(=O)O)CC[C@]3(C)C(=CC[C@@H]4[C@@]5(C)CC[C@H](O)C(C)(C)[C@@H]5CC[C@]43C)[C@@H]2[C@]1(C)O for LOX IMVI melanoma.
Ans: 29.5 µM

Q: Identify the measured TGI of O=C(CCN1CCCCC1)C(=Cc1ccccc1)C(=O)CCN1CCCCC1 for LOX IMVI melanoma.
Ans: > 100 µM

Q: Identify the measured TGI of O=C1/C(=C\c2ccccc2)C(NC2CCCCC2)c2ccccc21 (centres undefined) for LOX IMVI melanoma.
Ans: 3.33 µM

Q: Identify the measured TGI of C=CCO[C@H]1CO[C@H]2[C@@H]1OC[C@@H]2Oc1ccc(Nc2ccnc(Nc3ccc(O[C@H]4CO[C@H]5[C@@H]4OC[C@@H]5OCC=C)c(Cl)c3)n2)cc1Cl for LOX IMVI melanoma.
Ans: 3.31 µM

Q: Identify the measured TGI of Cc1ccc(Cl)c2[nH]c(-c3ccccc3)cc(=O)c12 for LOX IMVI melanoma.
Ans: > 100 µM

Q: Identify the measured TGI of OC1CSSC1Cn1cnc2c(Nc3ccc(OCc4cccc(F)c4)c(Cl)c3)ncnc21 (centres undefined) for LOX IMVI melanoma.
Ans: 0.499 µM

Q: Identify the measured TGI of COC(=O)c1c(C)cccc1C1CN=NC12Cc1ccc(C)cc1C2=O (centres undefined) for LOX IMVI melanoma.
Ans: > 100 µM

Q: Identify the measured TGI of CN(C)C(=O)O/N=C1/C(c2c(O)[nH]c3ccccc23)=Nc2ccccc21 for LOX IMVI melanoma.
Ans: > 100 µM

Q: Identify the measured TGI of Cc1c(O)c(O)cc[n+]1C1OC(CO)C(O)C1O (centres undefined) for LOX IMVI melanoma.
Ans: > 100 µM

Q: Identify the measured TGI of COc1ccc2cc(NC(=O)N/N=C\c3ccc([N+](=O)[O-])cc3)ccc2c1 for LOX IMVI melanoma.
Ans: > 100 µM

Q: Identify the measured TGI of Cc1nc2sccn2c1-c1csc(Nc2ccccc2Cl)n1 for LOX IMVI melanoma.
Ans: 21.6 µM

Q: Identify the measured TGI of CCOC(=O)Cn1c(C(F)(F)F)nc2nc(Cl)c(Cl)nc21 for LOX IMVI melanoma.
Ans: > 100 µM

Q: Identify the measured TGI of CCOC(=O)C(SCCO)C(C(=O)OCC)n1cnc2c(=O)[nH]c(NC(C)=O)nc21 (centres undefined) for LOX IMVI melanoma.
Ans: > 100 µM

Q: Identify the measured TGI of CC(=O)NC(Cc1ccc(O)cc1)C(=O)O (centres undefined) for LOX IMVI melanoma.
Ans: > 100 µM

Q: Identify the measured TGI of O=C(NC(=O)c1ccccc1[N+](=O)[O-])Nc1ccc(Oc2ncc(Br)cn2)c(Cl)c1 for LOX IMVI melanoma.
Ans: > 100 µM

Q: Identify the measured TGI of S=C1Nc2ccccc2SC1c1ccccc1 (centres undefined) for LOX IMVI melanoma.
Ans: > 100 µM

Q: Identify the measured TGI of O=[N+]([O-])c1ccc2c(c1)/C(=N/N=C1c3ccccc3Cc3ccccc31)c1cc([N+](=O)[O-])cc([N+](=O)[O-])c1-2 for LOX IMVI melanoma.
Ans: 4.6 µM

Q: Identify the measured TGI of COc1ccc2c(c1)sc1nc(-c3ccccc3)c(-c3cccc4ccccc34)n12 for LOX IMVI melanoma.
Ans: > 100 µM
